Tested on: SF-539 CNS
Assay: NCI tumour cell line growth inhibition, 48 h
TGI vs 3 µM: at or above is Y, below is N.

Molecule	Class
COc1cccc(C2C(C#N)=C(N)Oc3cc(OC)ccc32)c1 (stereo not given)	N
COc1ccc2sc3c(NCCCNCCO)nc4ccccc4c3c(=O)c2c1	Y
COc1c(Cl)c(Cl)c(OC)c2c1C(=O)C=CC2=O	Y
COc1ccc(-c2c(C#N)c(N)nc3c2CCCc2ccc(F)cc2-3)cc1OC	N
Cc1nc2ccccc2cc1C[N+]12CN3CN(CN(C3)C1)C2	Y
CC(C)(C)OC(=O)N1C/C=C\C(=O)C2(OCCO2)c2ccccc21	Y
Nc1nc(Nc2ccc3c(c2)CCC(N2CCCC2)CC3)nn1-c1cc2c(nn1)-c1ccccc1CCC2 (stereo not given)	N
COC(=O)[C@H](Cc1ccccc1)NC(=O)[C@@H](OC)[C@@H]1Cc2cc3cc(OC4CC(OC5CC(O)C(O)C(C)O5)C(O)C(C)O4)c(C)c(O)c3c(O)c2C(=O)[C@H]1OC1CC(OC2CC(OC3CC(C)(O)C(O)C(C)O3)C(O)C(C)O2)C(O)C(C)O1 (stereo not given in full)	N
CC1=N/C(=C\c2cccc3ccccc23)C(=O)O1	Y
Cc1ccc(Nc2ccc(Nc3ccc(C)cc3S(=O)(=O)O)c3c2C(=O)c2ccccc2C3=O)c(S(=O)(=O)O)c1	Y
Oc1ccccc1C=Nc1ccccc1N=Cc1ccccc1O	Y
CCOC(=O)C1=CN(C(=O)c2ccccc2)CCC1Cc1ccccc1 (stereo not given)	Y
Cc1ccc(-n2c(-c3ccc(Cl)cc3)cs/c2=N\NC(=O)COc2n[nH]c(=O)c3ccccc23)cc1	Y
CC(C)C[C@H](NC(=O)[C@H](CCc1ccccc1)NC(=O)c1ccc2ccccc2n1)B(O)O	N
CCc1nc(N)nc(N)c1-c1ccc(Cl)c(N=NN(C)C)c1	Y
CC(C)(C)n1cc(-c2ccnc(NCCNS(=O)(=O)c3cccc4ccccc34)c2)c(-c2cccc(F)c2)n1	Y
C/C(NC(=O)c1ccccc1)=C(/C(=O)c1ccccc1)[C@@H]1OC(C)(C)O[C@@H]1[C@H]1COC(C)(C)O1	Y
Cc1[nH]nc(C(=O)Nc2n[nH]c3ccccc23)c1[N+](=O)[O-]	Y
OC1(c2ccc(Cl)cc2)c2ccccc2C2=NCc3ccccc3CN21 (stereo not given)	Y
Cc1nc2ccc(NCCN(C)C)c3c(=O)c4cc(O)ccc4n1c23	Y
CCOC(=O)C12C(=O)CCN1CCc1ccccc1C2C (stereo not given)	Y
O=C1C(CN2CCCC2)CCCC1CN1CCCC1 (stereo not given)	Y
Cc1[nH]c(=O)[nH]c(=O)c1C(=O)N(CCO)Cc1ccccc1	Y
CCCCCCCCCC(=O)N[C@H]1CCc2cc(OC)c(OC)c(OC)c2-c2ccc(SC)c(=O)cc21	N
C=C1CO[C@@H]2C[C@@H]1CCC1(C)OC1CC/C(C)=C/CC[C@@]2(C)O (stereo not given in full)	Y

* * *

System: SR leukemia
Assay: NCI tumour cell line growth inhibition, 48 h
Readout type: TGI

> print(dat)
                                    compound  readout.type  reported.measurement
 1  Cc1cccc(N2C(=O)C(=O)C(c3nc4ccccc4s3)C(=O)C2=O)c1C           TGI              > 100 µM
 2  COC(=O)C(=O)C(C#N)c1ccc(Cl)c(Cl)c1 (stereo not drawn)           TGI              > 100 µM
 3  O=C(c1ccccc1)n1[nH]c(=O)n(-c2ccc(Cl)cc2)c1=O           TGI              > 100 µM
 4  c1ccc2nn(C3CCCCO3)nc2c1 (stereo not drawn)           TGI              > 100 µM
 5  C=C1CO[C@@H]2C[C@@H]1CCC1(C)OC1CC/C(C)=C/CC[C@@]2(C)O (stereo partly drawn)           TGI               2.72 µM
 6  Cc1[nH]nc(C(=O)Nc2n[nH]c3ccccc23)c1[N+](=O)[O-]           TGI             > 49.3 µM
 7          CC(C)C(/C=C/c1ccccc1)=N\NC(=S)NN           TGI              > 100 µM
 8  Cc1ccc(Nc2nc(NS(=O)(=O)c3cc(C)c(Cl)cc3S)n[nH]2)cc1           TGI              > 100 µM
 9  O=C1CCC2CCOc3ccc(O)c1c32 (stereo not drawn)           TGI              > 100 µM
10  CCCCC(=O)OC[n+]1ccc2c(C)c3[nH]c4ccc(OC)cc4c3c(C)c2c1           TGI               1.04 µM
11  COc1cccc(C2C(C#N)=C(N)Oc3cc(OC)ccc32)c1 (stereo not drawn)           TGI             > 33.8 µM
12  O=C(O)C(CO)NC(=O)C1C(C(=O)O)C(c2ccccc2[N+](=O)[O-])C=C(c2ccco2)N1c1ccncc1 (stereo not drawn)           TGI              > 100 µM
13                      N#CC(=S)Nc1ccc(F)cc1           TGI              > 100 µM
14              Nc1ccc(-c2nc3cc(F)ccc3s2)cc1           TGI              > 100 µM
15  COC1(OC)c2ccccc2C2(O)c3ccccc3C(=O)C12 (stereo not drawn)           TGI              > 100 µM
16  Cc1ccccc1NC(=O)c1sc2nc3c(cc2c1N)C(=O)CCC3           TGI              > 100 µM
17         Clc1cccc(N=C/C=C/Nc2cccc(Cl)c2)c1           TGI               62.3 µM
18  O=C1C=C(Nc2nc(C(=O)O)cc(=O)[nH]2)c2ccccc2C1=O           TGI              > 100 µM
19  C=CCc1cccc2cc(C(=O)Nc3nc(C45CC6CC(CC(C6)C4)C5)cs3)c(=O)oc12           TGI              > 100 µM
20  Oc1ccc(-c2nc3ccc4[nH]ncc4c3c3c2CCCC3)c2cccnc12           TGI               7.79 µM
21          CC(C)(CCC(C)(C)c1ccccc1)c1ccccc1           TGI                 50 µM
22  OC(C(=Nc1ccccc1)c1ccccc1)c1ccccc1 (stereo not drawn)           TGI               10.7 µM
23  Nc1c(O)c(S(=O)(=O)O)c(O)c2c1C(=O)c1ccccc1C2=O           TGI               7.17 µM

* * *

Tested on: SW-620 colon
Experiment: NCI tumour cell line growth inhibition, 48 h
Readout type: TGI

> print(dat)
                                    molecule  readout.type  reported.measurement
 1  CN1N(c2ccccc2)C(=O)C2=NC=C(C#N)C(=N)C21C (stereo not given)           TGI              > 100 µM
 2  Clc1ccc(-c2nn3c(C45CC6CC(CC(C6)C4)C5)nnc3s2)cc1           TGI              > 100 µM
 3  CCCCNCC(O)c1cc(-c2ccc(C(F)(F)F)cc2)nc(-c2ccc(C(F)(F)F)cc2)c1 (stereo not given)           TGI               2.96 µM
 4  COC(=O)C(N)CCCC(N)C(=O)NC(C)C(=O)NC(CCC(=O)NCCCNc1ccc([N+](=O)[O-])c2[nH]c3ccccc3c(=O)c12)C(N)=O (stereo not given)           TGI               14.7 µM
 5  CC(C)CC(=O)CC(O)C(Cl)(Cl)Cl (stereo not given)           TGI              > 100 µM
 6   c1csc(-c2nnc(C34CC5CC(CC(C5)C3)C4)o2)c1           TGI              > 100 µM
 7                           NCC(=O)CCC(=O)O           TGI              > 100 µM
 8         Clc1cccc(N=C/C=C/Nc2cccc(Cl)c2)c1           TGI               43.9 µM
 9                       CCCCC#Cc1cccc(=O)o1           TGI              > 100 µM
10  Cc1nn(C(=O)c2ccc(Cl)cc2)c2c1C(c1ccco1)SC(N)=N2 (stereo not given)           TGI               > 10 µM
11  CN(C)CCCC(=O)Nc1ccc(Cn2nnc3c2C(=O)c2nnn(Cc4ccc(NC(=O)CCCN(C)C)cc4)c2C3=O)cc1           TGI               12.2 µM
12  COC(=O)c1ccccc1N=Cc1ccc(N(CCC#N)S(=O)(=O)c2ccccc2)cc1           TGI              > 100 µM
13  COc1ccc(-c2nn(-c3cccc(NC(=O)Nc4cccc(C(F)(F)F)c4)c3)cc2-c2ccncc2)cc1Cl           TGI              > 100 µM
14  O=C1C=C(Nc2nc(C(=O)O)cc(=O)[nH]2)c2ccccc2C1=O           TGI              > 100 µM
15  COc1cccc2c1C(=O)c1c(O)c3c(c(O)c1C2=O)C[C@@](O)(/C(C)=N\O)C[C@@H]3OC1CC(N)C(O)C(C)O1 (stereo not given in full)           TGI               10.3 µM
16  COC(=O)c1cc2c(cc1Cl)SC(N(N(C)C)S(=O)(=O)c1ccc(Cl)cc1)=NS2(=O)=O           TGI               27.4 µM
17  O=C1/C(=C2\SCC(=O)N2c2ccccc2)SC(=S)N1c1ccccc1           TGI              > 100 µM
18  Cc1nn(-c2ccccc2)c2c1N=C(C(=O)O)CC(c1ccccc1)=N2           TGI               > 10 µM
19  COc1ccc(C(=O)N/N=C/c2ccc(O)cc2O)cc1Nc1ccnc(C(F)(F)F)c1           TGI               24.2 µM
20  CCc1cccc(C(C)CC)c1NC(=O)CC1C(=O)Nc2ccccc2S1=O (stereo not given)           TGI              > 100 µM
